Test system: MIA PaCa-2
EXPERIMENT DESCRIPTION: Cell viability panel, ATPlite 1Step
Assay type: cell-based
STUDY CONDITIONS: Homo sapiens, Pancreatic ductal adenocarcinoma, 72 h exposure, read-out: Compound EC50
PROPERTY LABEL: EC50

input: MIA PaCa-2 / EC50 / `CN(C)CCCS(=O)(=O)N1C/C(=C\c2ccc(C#N)cc2)C(=O)/C(=C/c2ccc(C#N)cc2)C1` : value?
output: 300 to 1000 nM

---

System: HT-1080
EXPERIMENT DESCRIPTION: Cell viability panel, ATPlite 1Step
Format: cell-based
STUDY CONDITIONS: Homo sapiens, Fibrosarcoma, 72 h exposure, read-out: Compound EC50
PROPERTY LABEL: EC50

input: Which EC50 is reported for this compound? `CN(C)CCCS(=O)(=O)N1C/C(=C\c2ccc(C#N)cc2)C(=O)/C(=C/c2ccc(C#N)cc2)C1`
output: < 300 nM

---

System: RL95-2
EXPERIMENT DESCRIPTION: Cell viability panel, ATPlite 1Step
Type: cell-based
STUDY CONDITIONS: Homo sapiens, Endometrial adenosquamous carcinoma, 72 h exposure, read-out: Compound EC50
PROPERTY LABEL: EC50

input: Which EC50 is reported for this compound? `CN(C)CCCS(=O)(=O)N1C/C(=C\c2ccc(C#N)cc2)C(=O)/C(=C/c2ccc(C#N)cc2)C1`
output: < 300 nM

---

Test system: SF-295
EXPERIMENT DESCRIPTION: Cell viability panel, CyQUANT Direct
Format: cell-based
STUDY CONDITIONS: Homo sapiens, CNS, 48 hours, read-out: Compound EC50
Procedure: Cell viability panel studies. Cells were diluted in the corresponding ATCC recommended medium and dispensed in a 384-well plate, depending on the cell line used, at a density of 200-6400 cells per well. For each used cell line, the optimal cell density was used. […] Following incubation at 37° C. for 48 hours with increasing concentrations of the compounds, viability was determined with CyQUANT® Direct Assay Kit (Invitrogen). […]
pEC50: −log10 of the molar value.
PROPERTY LABEL: pEC50

input: Which pEC50 is reported for this compound? CN(C)CCCS(=O)(=O)N1C/C(=C\c2ccc(C#N)cc2)C(=O)/C(=C/c2ccc(C#N)cc2)C1 [Compound AA]
output: > 6.52

---

Tested on: CAL 27
EXPERIMENT DESCRIPTION: Cell viability panel, ATPlite 1Step
Type: cell-based
STUDY CONDITIONS: Homo sapiens, Tongue squamous cell carcinoma, 72 h exposure, read-out: Compound EC50
pEC50: −log10 of the molar value.
PROPERTY LABEL: pEC50

input: Which pEC50 is reported for this compound? `CN(C)CCCS(=O)(=O)N1C/C(=C\c2ccc(C#N)cc2)C(=O)/C(=C/c2ccc(C#N)cc2)C1`
output: > 6.52

---

EXPERIMENT DESCRIPTION: Kinetic solubility by differential UV absorbance
Type: physicochemical
STUDY CONDITIONS: aqueous buffer, kinetic from dmso stock; DMSO stock diluted in PBS, OD before and after centrifugation
PROPERTY LABEL: solubility kinetic (µM)
Give bare numbers, in µM.

Cc1noc(C)c1/C=C1\CN(S(=O)(=O)CCCN(C)C)C/C(=C\c2c(C)noc2C)C1=O [Compound E1] = 2500

Would you kindly look at the next entry?
input: Which solubility kinetic is reported for this molecule? CN(C)CC(=O)NCC(=O)N1C/C(=C\c2ccc(C#N)cc2)C(=O)/C(=C/c2ccc(C#N)cc2)C1 [Compound B1]
output: 50
